Parameter: Measured binding capacity (mg hGH/mL resin). Scope: all listed entries.
Molecular target: UniProt P01241
Sequence (P01241 27-217): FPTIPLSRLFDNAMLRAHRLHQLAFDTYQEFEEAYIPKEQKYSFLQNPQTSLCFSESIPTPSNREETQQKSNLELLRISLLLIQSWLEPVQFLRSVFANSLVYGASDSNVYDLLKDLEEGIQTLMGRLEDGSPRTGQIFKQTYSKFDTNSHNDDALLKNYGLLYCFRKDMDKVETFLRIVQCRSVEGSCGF
Test: Binding capacity for wild type hGH of ligands synthesized on Fractogel Amino (1 mL columns)
Details: ligand on Fractogel Amino; load 5 mg/mL hGH in 25 mM Tris-HCl pH 7.50, 0.5 mL/min; elution gradient 1M NaCl/25 mM Tris pH 7.5

Request: Item under review: `N[C@@H](Cc1ccccc1)C(=O)N[C@@H](Cc1ccccc1)C(=O)N[C@@H](CNC(=O)C1c2ccccc2Oc2ccccc21)C(=O)O` . Reported Measured binding capacity (mg hGH/mL resin)?
Result: 1 mg hGH/mL resin

Request: Item under review: `CC[C@@H](C)[C@H](N)C(=O)N[C@@H](CCCCN)C(=O)N[C@@H](CNC(=O)c1c(C)nc2ccccn12)C(=O)O` . Reported Measured binding capacity (mg hGH/mL resin)?
Result: >10 mg hGH/mL resin

Request: Item under review: `CC[C@H](C)[C@H](N)C(=O)N[C@@H](Cc1ccc(O)cc1)C(=O)N[C@@H](CNC(=O)c1scc(S(=O)(=O)c2ccccc2)c1N)C(=O)O` . Reported Measured binding capacity (mg hGH/mL resin)?
Result: 6 mg hGH/mL resin
